assay: yeast display, Sf9 membrane polyspecificity reagent, FACS + sequencing; frameworks hold sequencing errors
assay_endpoint: polyreactivity (PSR sort gate)

Solved cases (4 shown):
Per the record, QVQLVESGGLLVQGGVSLRLSCAASGSTLYIYAMGWYRQAPGKERELVAANTWSGGRTFYADSVKGRFTISRDNAKNTVSLQMNSLTPEDTAVYYCAARILSDKTGSRYYYWGQGTQVTVSS has polyreactivity (PSR sort gate) of high polyreactivity

The value of polyreactivity (PSR sort gate) measured for the sequence QVQLVESGGGLVQAGGSLRLSCAASGSTFPRNAMGWYRQAPGKERELVATITSSAGGTYYADSVKGRFTISRDNAKNTVYLQMNSLKPEDTAVYYCNADKNGFWYTYFGRERDYWGQGTQVTVSS turned out to be low polyreactivity

Lab book: polyreactivity (PSR sort gate) of QVQLVESGGRLVHAGGSLRLSCAASGFTFSDYAMGGYRQEPGKERELVAAISTRGSSTYYADSVKGLFTISRDNEKTTVYLEMNSLKPEDTAVYYCNAVGSYSGYYYWGQGNQVTVSS noted as high polyreactivity

get_value(item= QVQLVESGGGLVQAGGSLRLSCAASGFIFYYNAMGWYRQAPGKERELVAGISRSAGSTYYADSVKGRFTISRDNAKNTVYLQMNSLKPEDTAVYYCAALYLSYITGTSYYWGQGTQVTVSS , readout=polyreactivity (PSR sort gate)) returns low polyreactivity

Moving on to the next sequence.
Item: QVQHVESGGGLVQAGGSLRLSCAASGFIFDCNTMGWYRQAPGKERELVATIDFSGTSTYYADSVKGRFTISRDNAKNTVYFQMNSLKPEDTAVYYCNAVRSGWGYFFCLNYWGQGTQVTVSS | polyreactivity (PSR sort gate): low polyreactivity

---

test: yeast display, Sf9 membrane polyspecificity reagent, FACS + sequencing; frameworks hold sequencing errors
assay_endpoint: polyreactivity (PSR sort gate)

The reported polyreactivity (PSR sort gate) of the sequence QVQLVESGGGLVQAGGSLRLSCAASGFTFFHYAMGWYRQATGKEREFVAAINTRGSRTYYADSVKGRFTISRDNAKNTVYLQMNSLKPEDTAVYYCAADSVQVYAWQYYYWGQGTQVTVSS was high polyreactivity

So for QVQLLESGGGLVQAGGSLRLICAASGLIFGPYTMGWYRQAPGKERELVAAITRSGGRTYYADSVKGRFTISRDNAKNTVYLQMNRLKPEDTAVYYCAAYGGQSWDYDYWGQGTQVTVSS , the logged polyreactivity (PSR sort gate) turned out to be high polyreactivity

---

test: yeast display, Sf9 membrane polyspecificity reagent, FACS + sequencing; frameworks hold sequencing errors
assay_endpoint: polyreactivity (PSR sort gate)

get_value(item= QVQLVESGGGLVQAGGSLRLSCAASGSTFVINAMGWYRQAPGKERELVAAIDFSGGSTYYADSVKGRFTISRDNAKNTVYLQMNSLKPEDTAVYYCAAVLSSYGYGGYTWYDYEYWGKGTQVTVSS , readout=polyreactivity (PSR sort gate)) returns high polyreactivity

Input QVQLVESGGGLVQAGGSLRLICAASGRIFGVYVMGLYRPAPGKERELVAAISWSGSHTYYADSVKGRFTISRDNAKNTVYLQMNSLKPEDTAVYYCNADSYPEYTGPGLDWYDYWGQGTQVTVSS . Output polyreactivity (PSR sort gate): low polyreactivity

The value of polyreactivity (PSR sort gate) measured for the sequence QDQLVESGGGLVQAGGSLRLSCAASGSIFAWNAMGWYRQAPGKERELVAVITSGGSTNYADSVKGRFTISRDNAKNTVYLQMNSLKPEDTAVYYCAARSWVYSVIGDYWGQVTQVTVSS turned out to be low polyreactivity

For QVKLVESGGGLVQAGGSLRFTCAASGRTFGSNAMGWYRQAPGKERELVAVITTSGGSTYYADSVKGRFTISRDNAKNTVYLQMISLKPEDTAVYSCAKRVATGYKSYGYGYWGQGTQVTVSS the sequence record lists polyreactivity (PSR sort gate) as high polyreactivity

The sequence listed as QVHLVESGGGLVQAGGSLRLSCAASGSIFTGYAMGWYRQAPGKERELVAGISWGGTSTYYADSVKGRFTISRDNAKNTVYLQMNSLKPEDTAVYYCAAKPYYFYGMDYWGQGTQVTVSS shows polyreactivity (PSR sort gate) equal to high polyreactivity

Sure, the documented polyreactivity (PSR sort gate) for QVQLVESGGGLVQAGGSLRLSCAASGSIFGSYAMGWYRQATGNERELVAAIRSSASTYYADSVKGRFTISRDNAKNTVYLQMYSLKPEDTAVYYCAAKFTSYGRSRYYSWGQGTQVTVSS is high polyreactivity

Sample QVQLVESGGGLVQAGGSLRLSCAASGSTFLTYAMGWYRQAAGKERELVAGISYSTGSTYYADSVKGRFTISRDNAKNTVYLQMNSLKPEDTAVYYCAADEWDGLWYYYYFNYEDWGQGTQVTVSS ; polyreactivity (PSR sort gate) observed: low polyreactivity

Input QGQHVESGGGLVQAGGSLRLSCDASGSTIYQYAMGWYRQAPGKESELVAAISGISGSTSYADSVTGRFTISRDNAKNTVYLQMNSLKPEDTAVYDCAKGTAPIPYRGRVGTSKSDYWGQGTQVTVSS . Output polyreactivity (PSR sort gate): low polyreactivity

***
In plain terms, QVQLVESGGGLVQAGGSLRLSCAASGSIFLDNAMGWYRQAPGKERELVAAISRRGGTTYYADSVKGRFTISRDNAKNTVYLQMNSLKPEDTAVYYCAARYPGGKYYSYTYNYWGQGTQVTVSS has a documented polyreactivity (PSR sort gate) of high polyreactivity

Consider QVQLVESGGGLVQAGGSLRLSCAASGLIFRYYAMGWYRQAPGKERELVAAISYSGGRTYYADSVKGRFTISRDNAKNTVYLQMNSLKPEDTAVYYCAAVDRRGYRYALDYWGQGTQVTVSS . Its measured polyreactivity (PSR sort gate) is high polyreactivity

The recorded polyreactivity (PSR sort gate) for entry QVQLVESGGGLVQAGGSLRLSCAASGYIFNRYVMGWYRQAPGKERELVAAITWRGGTTYADSVKGRFTISRDNAKNTVYLLMNSLKPEDTAVYYCAARRYPFEYDYWGQGTQVTVSS equals high polyreactivity

Entry under test: QVQLVESGGGLVQAGGSLRLSCAASGRTFTEYAMGWYRQAPGKERELVAGIDSGSGSTYYADSVKGRFTISRDNAKNTVYLQMNSLKPEDTAVYYCAADHAYYRYDYWGQGTQVTVSS . Its polyreactivity (PSR sort gate) was low polyreactivity

The sequence listed as QVQLVESGGGLVQAGGSLRLSCAASGLIFGWNAMGWYRQAPGKERELVAAITWNGGSTYYADSVKGRFTISRDNAKITVSLQMNSLKPEDTAVYYCAARVGWNIRGYDYWGQGTQVTVSS shows polyreactivity (PSR sort gate) equal to low polyreactivity

QVQLVESGGGLVQAGGSLRLSCAASGFIFGYYAMGWYRQAPGKERELVAAITSGTGTNYADSVKGRFTISRDNAKNTVYLQMNSLKPEDTAVYYCAAYYTWLSEFGYWGQGTQVTVSS yielded polyreactivity (PSR sort gate) of low polyreactivity

---

experiment: yeast display, Sf9 membrane polyspecificity reagent, FACS + sequencing; frameworks hold sequencing errors
assay_endpoint: polyreactivity (PSR sort gate)

Known polyreactivity (PSR sort gate) results, listed for orientation:
Input QVQLVESGGGLVQAGGSLRLSCAASGLIFPYYAMGWNRQAPGKESELVAASSGSGGRTYYADSVKGRFTISRDNAKITVYLQMNSRKPEDTAVYYCAAAVLDSYTRYIWYIYDYWGQGTQVTVSS . Output polyreactivity (PSR sort gate): high polyreactivity

Note to self: polyreactivity (PSR sort gate) recorded for QVQLVESGGGLVQAGGSLRLSCAASGSTFRPYVMGWSRQAPGKERELVAAISWRGGTTYYADSVKGRFTISRDNAKNTVYLQMNSQKPEDPAVYYCAARGDQGVPVARRYDYWGQGTQVTVSS was high polyreactivity

// polyreactivity (PSR sort gate) value for QVQLVESGGGLVQAGGSLRLSCAASGLTFWRYTMGWYRPAPGKERELVAVITYRGGSTYYADSVKGRFTISRDNAKNTVYLQMNSLKPEDTAVYYCDAGRRTYGLTYDYWGQGTQVTVSS : high polyreactivity

Noted for QVQLVESGGGLVQAGGSLRLSCAASGRIFRLYAMGWYRQAPGKERELVAAISKSGGSTYYADSVKGRFTISRDNAKYTVYLQMNSLNPEDTAVYYCAADYRTHGGYVGTFDYWGQGTQVTVSS : its polyreactivity (PSR sort gate) reads low polyreactivity

Measured polyreactivity (PSR sort gate) of QVQLVESGGGLVQAGGSLRLSCAASGRTFYTNAMGWYRQAPGKERELSTNYADSVKGRFTISRDNAKNTVYLQMNSLKPEDTAVYYCNADGFLRFAGFDYWGQGTQVTVSS : low polyreactivity

---
The sequence identified as QVQLVESGGGLVQAGGSLRLSCAASGRIFSRYAMGGYRQAPGKERELVAAIRYSGGRTYYADSVKGRFTISRDNAKNTVYLQMNSLIPEDTEVYYCAADGQWYYAPFRGGDYENDYWGQGTQVTVSS registered its polyreactivity (PSR sort gate) at low polyreactivity

QVQLVESGGGLVQAGGSLRLSCAASGRIFAYNAMGWYRQAPGKERELVAAITWSGSTYYADSVKGRFTISRDNAKNTVYLQMNSLKPEDTAVYYCNAQYRGYWNRGYDYWGQGTQVTVSS yielded polyreactivity (PSR sort gate) of high polyreactivity

Values compiled from the nanobody polyreactivity screen of Harvey et al. (2022).
